# assayed system: PRMT5 (Homo sapiens, UniProt O14744)
# Construct: purchased Viva (custom protein)
# Sequence (O14744 whole entry): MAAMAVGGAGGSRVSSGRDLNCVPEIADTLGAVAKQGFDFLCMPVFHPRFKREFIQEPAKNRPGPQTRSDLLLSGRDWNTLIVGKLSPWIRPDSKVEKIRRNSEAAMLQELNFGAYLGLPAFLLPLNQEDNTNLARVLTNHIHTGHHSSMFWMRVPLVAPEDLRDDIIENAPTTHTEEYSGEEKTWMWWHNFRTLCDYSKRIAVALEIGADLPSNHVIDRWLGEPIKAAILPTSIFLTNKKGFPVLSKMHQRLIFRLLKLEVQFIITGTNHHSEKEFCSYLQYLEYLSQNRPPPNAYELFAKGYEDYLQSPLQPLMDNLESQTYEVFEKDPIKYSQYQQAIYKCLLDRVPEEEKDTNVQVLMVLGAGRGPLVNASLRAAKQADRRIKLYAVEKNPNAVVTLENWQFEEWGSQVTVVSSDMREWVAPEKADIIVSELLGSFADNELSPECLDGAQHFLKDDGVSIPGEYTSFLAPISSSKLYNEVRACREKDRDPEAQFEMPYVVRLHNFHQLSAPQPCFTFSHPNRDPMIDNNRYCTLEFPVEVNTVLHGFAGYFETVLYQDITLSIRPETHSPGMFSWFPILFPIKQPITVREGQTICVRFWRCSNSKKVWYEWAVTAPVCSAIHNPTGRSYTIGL
# Sequence (Q9BQA1 whole entry partner): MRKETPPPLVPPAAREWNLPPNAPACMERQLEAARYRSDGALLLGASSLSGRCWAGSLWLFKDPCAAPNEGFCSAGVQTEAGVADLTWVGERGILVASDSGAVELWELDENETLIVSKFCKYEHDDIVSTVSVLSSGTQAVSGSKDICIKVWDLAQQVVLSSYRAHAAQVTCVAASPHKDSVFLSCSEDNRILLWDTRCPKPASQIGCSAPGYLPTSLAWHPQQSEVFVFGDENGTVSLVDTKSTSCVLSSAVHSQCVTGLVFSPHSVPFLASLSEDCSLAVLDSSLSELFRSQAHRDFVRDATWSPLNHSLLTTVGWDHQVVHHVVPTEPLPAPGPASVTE
# assay notes: PRMT5 IC50 assay in the presence of MTA as cofactor
# Format: biochemical
# experimental parameters: PRMT5, MTA as cofactor
reported metric: IC50

| smiles entry | value measured |
| --- | --- |
| Cc1c(OCc2cnco2)cc(F)c2c1CCN(C[C@H](O)CNC(=O)c1ccnc(NC3CCC3)c1)C2 | 0.5 to 5 µM |

Input line: What is its IC50 for PRMT5 (Homo sapiens, UniProt O14744)? Entry: `CC(=O)N1CCC(Nc2cc(C(=O)NC[C@H](O)CN3CCc4cc(OCc5cnnn5C)ccc4C3)ncn2)CC1`
Output line: 0.5 to 5 µM

Input line: Another molecule: `Cc1ncoc1COc1ccc2c(c1)CCN(C[C@@H](O)CNC(=O)c1cc(NC3CCC3)nc(N3CCCCC3)c1)C2`
Output line: 0.05 to 0.5 µM

Input line: Subsequent entry: `O=C(NC[C@H](O)CN1CCc2cc(OCc3cnco3)ccc2C1)c1cc(NC2CCC2)ncc1Cl`
Output line: 0.05 to 0.5 µM

Input line: Same question, `CC(=O)N1CCC(Nc2cc(C(=O)NC[C@H](O)CN3CCc4c(ccc(OCc5ocnc5C)c4C)C3)cc(N3CCN(C(C)=O)CC3)n2)CC1` this time
Output line: 0.05 to 0.5 µM

Input line: How about this molecule: `CC(=O)N1CCN(c2cc(C(=O)NC[C@H](O)CN3CCc4cc(OCc5cnco5)ccc4C3)cc(NC3CCC3)n2)CC1`
Output line: 0.05 to 0.5 µM

Input line: What about `COCCN(C)c1nc(NC2COC2)cc(C(=O)NC[C@H](O)CN2CCc3cc(OCc4cnco4)ccc3C2)n1` ?
Output line: 0.05 to 0.5 µM
